# Tested on: MOLM-13 cells
# measurement.protocol: Cellular Fluorescence Assay 1 (CellTiter-Glo, 72 hours)
# Assay type: cell-based
pIC50: −log10 of the molar value. Where a SMILES comes first, the peptide text is derived from it. [ ]: non-standard residue; d: D form. ξ: configuration not given here. Ala(thiazol-5-yl) = N[C@@H](Cc1cncs1)C(=O)O; Ala(4-thiazolyl) = N[C@@H](Cc1cscn1)C(=O)O; NMePhe(4-F) = CN[C@@H](Cc1ccc(F)cc1)C(=O)O; Phe(4-Cl) = N[C@@H](Cc1ccc(Cl)cc1)C(=O)O; Phe(4-F) = N[C@@H](Cc1ccc(F)cc1)C(=O)O; NMeF = CN[C@@H](Cc1ccccc1)C(=O)O; hSer = N[C@@H](CCO)C(=O)O; NMeA = CN[C@@H](C)C(=O)O; dNMeA = CN[C@H](C)C(=O)O; ξNMeV = CNC(C(=O)O)C(C)C; Aze = O=C(O)[C@@H]1CCN1; NBuGly = CCCCNCC(=O)O; Nme = COCCNCC(=O)O; Sar = CNCC(=O)O
measure.name: pIC50

INSERT INTO results (compound, measure_name, result) VALUES
  ('COCC[C@@H]1NC(=O)[C@H]2CCCN2C(=O)[C@H](Cc2ccc(F)cc2)N(C)C(=O)[C@H](Cc2ccc(Cl)cc2)NC(=O)[C@@H]2CCN2C(=O)[C@H](Cc2ccc(F)cc2)NC(=O)CN(CCOC)C(=O)[C@@H](C)N(C)C(=O)[C@H](Cc2cscn2)NC(=O)CN(C)C1=O [compound 23] (cyclo([Ala(4-thiazolyl)][dNMeA][Nme][Phe(4-F)][Aze][Phe(4-Cl)][NMePhe(4-F)][dP][hSer](Me)[Sar]))', 'pIC50', '≤ 6.82'),
  ('CCCCN1CC(=O)N[C@@H](Cc2ccc(F)cc2)C(=O)N(C)C(C(C)C)C(=O)N[C@@H](Cc2ccc(Cl)cc2)C(=O)N(C)[C@@H](Cc2ccccc2)C(=O)N2CCC[C@@H]2C(=O)N[C@@H](CCOC)C(=O)N(C)[C@@H](C)C(=O)N[C@@H](Cc2cncs2)C(=O)N(C)[C@H](C)C1=O (some centres unmarked) [compound 24] (cyclo([NMeA][Ala(thiazol-5-yl)][dNMeA][NBuGly][Phe(4-F)][ξNMeV][Phe(4-Cl)][NMeF][dP][hSer](Me)))', 'pIC50', '≤ 6.82');

* * *

# System: MOLM-13 cells
# measurement.protocol: Cellular Fluorescence Assay 1 (CellTiter-Glo, 72 hours)
# Type: cell-based
pIC50: −log10 of the molar value. *1 amine or outer side, *2 acyl side, *3 side chain or, on linkers, in order; H or OH if unused. Where a SMILES comes first, the peptide text is derived from it. [ ]: non-standard residue; d: D form. The star is where a group is joined. Ala(thiazol-5-yl) = N[C@@H](Cc1cncs1)C(=O)O; Ala(4-thiazolyl) = N[C@@H](Cc1cscn1)C(=O)O; NMePhe(4-F) = CN[C@@H](Cc1ccc(F)cc1)C(=O)O; Phe(4-Cl) = N[C@@H](Cc1ccc(Cl)cc1)C(=O)O; Phe(4-F) = N[C@@H](Cc1ccc(F)cc1)C(=O)O; X2 = CC1(C)CN([*:1])[C@@H]1C(=O)[*:2]; NMeF = CN[C@@H](Cc1ccccc1)C(=O)O; NMeNva = CCC[C@H](NC)C(=O)O; NMeV = CN[C@H](C(=O)O)C(C)C; hSer = N[C@@H](CCO)C(=O)O; NMeA = CN[C@@H](C)C(=O)O; dNMeA = CN[C@H](C)C(=O)O; Aze = O=C(O)[C@@H]1CCN1; Butyryl = CCCC(=O)*; Nme = COCCNCC(=O)O; NEtG = CCNCC(=O)O; Sar = CNCC(=O)O
measure.name: pIC50

INSERT INTO results (compound, result) VALUES
  ('COCC[C@@H]1NC(=O)[C@H]2CCCN2C(=O)[C@H](Cc2ccc(F)cc2)N(C)C(=O)[C@H](Cc2ccc(Cl)cc2)NC(=O)[C@@H]2CCN2C(=O)[C@H](Cc2ccc(F)cc2)NC(=O)CN(CCOC)C(=O)[C@@H](C)N(C)C(=O)[C@H](Cc2cscn2)NC(=O)[C@H](C(C)C)N(C)C1=O [compound 22] (cyclo([Ala(4-thiazolyl)][dNMeA][Nme][Phe(4-F)][Aze][Phe(4-Cl)][NMePhe(4-F)][dP][hSer](Me)[NMeV]))', '≤ 6.82'),
  ('COCC[C@@H]1NC(=O)[C@H]2CCCN2C(=O)[C@H](Cc2ccc(F)cc2)N(C)C(=O)[C@H](Cc2ccc(Cl)cc2)NC(=O)[C@@H]2CCN2C(=O)[C@H](Cc2ccc(F)cc2)NC(=O)CN(CCOC)C(=O)[C@@H](C)N(C)C(=O)[C@H](Cc2cscn2)NC(=O)[C@@H]2CCCN2C1=O [compound 21] (cyclo([Ala(4-thiazolyl)][dNMeA][Nme][Phe(4-F)][Aze][Phe(4-Cl)][NMePhe(4-F)][dP][hSer](Me)P))', '≤ 6.82'),
  ('CCC[C@H]1C(=O)N[C@@H](Cc2ccc(F)cc2)C(=O)N(C)[C@@H](C(C)C)C(=O)N[C@@H](Cc2ccc(Cl)cc2)C(=O)N(C)[C@@H](Cc2ccccc2)C(=O)N2CCC[C@@H]2C(=O)N[C@@H](CCOC)C(=O)N(C)[C@@H](C)C(=O)N[C@@H](Cc2cncs2)C(=O)N(C)[C@H](C)C(=O)N1C [compound 28] (cyclo([NMeA][Ala(thiazol-5-yl)][dNMeA][NMeNva][Phe(4-F)][NMeV][Phe(4-Cl)][NMeF][dP][hSer](Me)))', '≤ 6.82'),
  ('COCC[C@@H]1NC(=O)[C@H]2CCCN2C(=O)[C@H](Cc2ccccc2)N(C)C(=O)[C@H](Cc2ccc(Cl)cc2)NC(=O)[C@H](C(C)C)N(C)C(=O)[C@H](Cc2ccc(F)cc2)NC(=O)[C@H](C)N(C)C(=O)[C@@H](C)N(C)C(=O)[C@H](Cc2cncs2)NC(=O)[C@H](C)N(C)C1=O [compound 26] (cyclo([NMeA][Phe(4-F)][NMeV][Phe(4-Cl)][NMeF][dP][hSer](Me)[NMeA][Ala(thiazol-5-yl)][dNMeA]))', '6.82 to 7.00'),
  ('COCC[C@@H]1NC(=O)[C@H]2CCCN2C(=O)[C@H](Cc2ccccc2)N(C)C(=O)[C@H](Cc2ccc(Cl)cc2)NC(=O)[C@H](C(C)C)N(C)C(=O)[C@H](Cc2ccc(F)cc2)NC(=O)CN(C)C(=O)[C@@H](C)N(C)C(=O)[C@H](Cc2cncs2)NC(=O)[C@H](C)N(C)C1=O [compound 27] (cyclo([NMeA][Ala(thiazol-5-yl)][dNMeA][Sar][Phe(4-F)][NMeV][Phe(4-Cl)][NMeF][dP][hSer](Me)))', '≤ 6.82'),
  ('COCC[C@@H]1NC(=O)[C@H]2CCCN2C(=O)[C@H](Cc2ccc(F)cc2)N(C)C(=O)[C@H](Cc2ccc(Cl)cc2)NC(=O)[C@H]2N(CC2(C)C)C(=O)[C@H](Cc2ccc(F)cc2)NC(=O)CN(CCOC)C(=O)[C@@H](C)N(C)C(=O)[C@H](Cc2cscn2)NC(=O)[C@H](C)N(C)C1=O [compound 11] (cyclo([Ala(4-thiazolyl)][dNMeA][Nme][Phe(4-F)][X2][Phe(4-Cl)][NMePhe(4-F)][dP][hSer](Me)[NMeA]))', '≤ 6.82'),
  ('CCN1CC(=O)N[C@@H](Cc2ccc(F)cc2)C(=O)N(C)[C@@H](C(C)C)C(=O)N[C@@H](Cc2ccc(Cl)cc2)C(=O)N(C)[C@@H](Cc2ccccc2)C(=O)N2CCC[C@@H]2C(=O)N[C@@H](CCOC)C(=O)N(C)[C@@H](C)C(=O)N[C@@H](Cc2cncs2)C(=O)N(C)[C@H](C)C1=O [compound 25] (cyclo([NEtG][Phe(4-F)][NMeV][Phe(4-Cl)][NMeF][dP][hSer](Me)[NMeA][Ala(thiazol-5-yl)][dNMeA]))', '≤ 6.82'),
  ('CCCC(=O)O[C@H](C)[C@@H]1NC(=O)[C@H](Cc2ccc(F)cc2)NC(=O)CN(CCOC)C(=O)[C@@H](C)N(C)C(=O)[C@H](Cc2cscn2)NC(=O)[C@H](C)N(C)C(=O)[C@H](CCOC)NC(=O)[C@H]2CCCN2C(=O)[C@H](Cc2ccccc2)N(C)C(=O)[C@H](Cc2ccc(Cl)cc2)NC1=O [compound 6] (cyclo([Ala(4-thiazolyl)][dNMeA][Nme][Phe(4-F)]T(Butyryl)[Phe(4-Cl)][NMeF][dP][hSer](Me)[NMeA]))', '7.00 to 7.30');
